Where do these numbers come from? They come from the Human Domainome abundance scans (Beltran et al. 2025).

B1: Membrane-associated guanylate kinase, WW and PDZ domain-containing protein 2, residues 296 to 340; numbered along this chain, Q86UL8 (parent)
chain: EDNEEPDPLPDNWEMAYTEKGEVYFIDHNTKTTSWLDPRLAKKAK

Variants of: B1
Experiment: abundance fitness (aPCA) (normalised: wild type 0, dead -1); higher = more abundant; growth selection in yeast, the domain comes from the species named
Settings: Homo sapiens
Label Condition met for high-side abundance fitness (at or above -0.1) and Condition not met for low-side abundance fitness (below it).

Prompt line: Is it the case that A16K has abundance fitness reaching or exceeding -0.1?
Response line: Condition not met

Prompt line: Is it the case that P8L has abundance fitness reaching or exceeding -0.1?
Response line: Condition met

Prompt line: Is it the case that S34R has abundance fitness reaching or exceeding -0.1?
Response line: Condition not met

Prompt line: Is it the case that K31D has abundance fitness reaching or exceeding -0.1?
Response line: Condition not met

Prompt line: Is it the case that L40P has abundance fitness reaching or exceeding -0.1?
Response line: Condition met

Prompt line: Is it the case that K20M has abundance fitness reaching or exceeding -0.1?
Response line: Condition met

Prompt line: Is it the case that G21F has abundance fitness reaching or exceeding -0.1?
Response line: Condition not met

Prompt line: Is it the case that E4Q has abundance fitness reaching or exceeding -0.1?
Response line: Condition met

Prompt line: Is it the case that T30E has abundance fitness reaching or exceeding -0.1?
Response line: Condition not met

Prompt line: Is it the case that N12S has abundance fitness reaching or exceeding -0.1?
Response line: Condition not met

Prompt line: Is it the case that R39L has abundance fitness reaching or exceeding -0.1?
Response line: Condition not met

Prompt line: Is it the case that T33M has abundance fitness reaching or exceeding -0.1?
Response line: Condition not met

Prompt line: Is it the case that K31V has abundance fitness reaching or exceeding -0.1?
Response line: Condition not met

Prompt line: Is it the case that T32M has abundance fitness reaching or exceeding -0.1?
Response line: Condition met

Prompt line: Is it the case that K20C has abundance fitness reaching or exceeding -0.1?
Response line: Condition met

Prompt line: Is it the case that P10Q has abundance fitness reaching or exceeding -0.1?
Response line: Condition not met

Prompt line: Is it the case that D27Y has abundance fitness reaching or exceeding -0.1?
Response line: Condition not met

Prompt line: Is it the case that N29E has abundance fitness reaching or exceeding -0.1?
Response line: Condition met

Prompt line: Is it the case that D27V has abundance fitness reaching or exceeding -0.1?
Response line: Condition not met

Prompt line: Is it the case that K42E has abundance fitness reaching or exceeding -0.1?
Response line: Condition met

Prompt line: Is it the case that N12D has abundance fitness reaching or exceeding -0.1?
Response line: Condition not met

Prompt line: Is it the case that E4G has abundance fitness reaching or exceeding -0.1?
Response line: Condition met

Prompt line: Is it the case that N3E has abundance fitness reaching or exceeding -0.1?
Response line: Condition not met

Prompt line: Is it the case that K31S has abundance fitness reaching or exceeding -0.1?
Response line: Condition not met

Prompt line: Is it the case that D27L has abundance fitness reaching or exceeding -0.1?
Response line: Condition not met

Prompt line: Is it the case that Y17K has abundance fitness reaching or exceeding -0.1?
Response line: Condition met

Prompt line: Is it the case that K20S has abundance fitness reaching or exceeding -0.1?
Response line: Condition met

Prompt line: Is it the case that H28E has abundance fitness reaching or exceeding -0.1?
Response line: Condition not met

Prompt line: Is it the case that F25T has abundance fitness reaching or exceeding -0.1?
Response line: Condition not met

Prompt line: Is it the case that E19I has abundance fitness reaching or exceeding -0.1?
Response line: Condition not met

Prompt line: Is it the case that L36E has abundance fitness reaching or exceeding -0.1?
Response line: Condition not met
